Biological target: Protein deacetylase HDAC6 (Homo sapiens)
Sequence (Q9UBN7 whole entry): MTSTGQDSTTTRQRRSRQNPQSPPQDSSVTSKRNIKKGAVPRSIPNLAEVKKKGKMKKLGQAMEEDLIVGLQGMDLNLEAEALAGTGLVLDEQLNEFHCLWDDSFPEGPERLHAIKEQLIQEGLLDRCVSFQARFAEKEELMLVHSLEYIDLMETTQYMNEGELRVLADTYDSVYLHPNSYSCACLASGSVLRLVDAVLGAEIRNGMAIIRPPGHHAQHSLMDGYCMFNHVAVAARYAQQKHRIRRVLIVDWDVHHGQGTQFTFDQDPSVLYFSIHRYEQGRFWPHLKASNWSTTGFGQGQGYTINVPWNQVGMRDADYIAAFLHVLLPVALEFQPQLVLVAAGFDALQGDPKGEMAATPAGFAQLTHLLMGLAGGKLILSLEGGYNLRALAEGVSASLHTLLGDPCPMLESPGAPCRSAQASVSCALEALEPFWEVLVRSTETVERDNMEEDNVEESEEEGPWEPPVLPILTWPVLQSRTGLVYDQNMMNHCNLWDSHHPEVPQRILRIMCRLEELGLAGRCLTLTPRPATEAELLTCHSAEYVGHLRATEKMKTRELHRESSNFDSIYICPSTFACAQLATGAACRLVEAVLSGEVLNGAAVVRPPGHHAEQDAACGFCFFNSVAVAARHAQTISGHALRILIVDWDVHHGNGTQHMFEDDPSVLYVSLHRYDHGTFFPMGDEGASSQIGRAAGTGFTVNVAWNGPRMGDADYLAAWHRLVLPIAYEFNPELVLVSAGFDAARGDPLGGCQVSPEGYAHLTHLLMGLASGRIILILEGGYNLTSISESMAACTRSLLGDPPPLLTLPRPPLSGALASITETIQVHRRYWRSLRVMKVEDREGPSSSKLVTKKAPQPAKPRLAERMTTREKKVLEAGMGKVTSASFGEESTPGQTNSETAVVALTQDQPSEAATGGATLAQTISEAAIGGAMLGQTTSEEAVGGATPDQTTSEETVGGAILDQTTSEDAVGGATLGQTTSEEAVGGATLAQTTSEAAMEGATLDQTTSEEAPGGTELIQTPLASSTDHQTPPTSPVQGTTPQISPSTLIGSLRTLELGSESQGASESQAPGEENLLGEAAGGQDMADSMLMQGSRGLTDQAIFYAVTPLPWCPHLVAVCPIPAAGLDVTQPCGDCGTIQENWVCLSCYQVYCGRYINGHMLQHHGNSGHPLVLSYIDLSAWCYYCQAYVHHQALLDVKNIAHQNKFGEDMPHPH
Listing: Kd of selected molecules
Numeric only. Scale: µM

COc1ccc(Cn2ccc3ccc(C(=O)NO)cc32)cc1C(=O)NCCNc1ccc(S(=O)(=O)N(C)C)c2nonc12    29.4

Data request, read-out Kd, for COc1ccc(Cn2ccc3ccc(C(=O)NO)cc32)cc1C(=O)NCCCNc1ccc(S(=O)(=O)N(C)C)c2nonc12
20.1
